Target: 5HT6 human recombinant receptor (Homo sapiens)
Construct: purchased Receptor Biology; host or cells: HEK-293 cell membranes (recombinant expression)
Sequence (P50406 whole entry): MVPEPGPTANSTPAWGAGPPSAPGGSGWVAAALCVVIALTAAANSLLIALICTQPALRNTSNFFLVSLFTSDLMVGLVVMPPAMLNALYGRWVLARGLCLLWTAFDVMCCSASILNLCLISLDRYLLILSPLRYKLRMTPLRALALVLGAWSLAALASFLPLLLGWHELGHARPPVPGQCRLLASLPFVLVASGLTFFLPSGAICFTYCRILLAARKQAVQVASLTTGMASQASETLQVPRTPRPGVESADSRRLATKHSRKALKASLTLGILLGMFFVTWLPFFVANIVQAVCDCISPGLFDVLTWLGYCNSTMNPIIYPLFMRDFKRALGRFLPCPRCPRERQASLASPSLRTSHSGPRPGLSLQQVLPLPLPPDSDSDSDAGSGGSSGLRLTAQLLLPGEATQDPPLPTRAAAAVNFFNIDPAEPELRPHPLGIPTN
Assay: Binding Test to 5-HT6 Receptors ([3H]-LSD displacement, HEK-293 membranes)
Settings: compound at 10^−7 M, [3H]-LSD 2.7 nM, 60 min, 37° C.
measurement_type: inhibition at 0.1 µM (%)

1. CN1CCN(C2CCc3ccc(NS(=O)(=O)c4c(Cl)nc5sccn45)cc32)CC1 (racemic) | 83.4
2. O=S(=O)(Nc1ccc2c(c1)C(N1CCNCC1)CC2)c1c(Cl)nc2sccn12 (centres unmarked) | 85.6
3. CC1Cc2ccc(NS(=O)(=O)c3c(Cl)nc4sccn34)cc2/C1=N\NC(=N)N (centres unmarked) | 91.1
4. Cc1c(S(=O)(=O)Nc2ccc3c(c2)C(N2CCN(C)CC2)CC3)sc2ccc(Cl)cc12 (centres unmarked) | 87.9
5. CN1CCN(C2CCc3ccc(N(C)S(=O)(=O)c4c(Cl)nc5sccn45)cc32)CC1 (centres unmarked) | 72.7
